Reference source: the supplement of paper PMC10065799

Target: FGFR1 (UniProt P11362)
Sequence (P11362 whole entry, looked up): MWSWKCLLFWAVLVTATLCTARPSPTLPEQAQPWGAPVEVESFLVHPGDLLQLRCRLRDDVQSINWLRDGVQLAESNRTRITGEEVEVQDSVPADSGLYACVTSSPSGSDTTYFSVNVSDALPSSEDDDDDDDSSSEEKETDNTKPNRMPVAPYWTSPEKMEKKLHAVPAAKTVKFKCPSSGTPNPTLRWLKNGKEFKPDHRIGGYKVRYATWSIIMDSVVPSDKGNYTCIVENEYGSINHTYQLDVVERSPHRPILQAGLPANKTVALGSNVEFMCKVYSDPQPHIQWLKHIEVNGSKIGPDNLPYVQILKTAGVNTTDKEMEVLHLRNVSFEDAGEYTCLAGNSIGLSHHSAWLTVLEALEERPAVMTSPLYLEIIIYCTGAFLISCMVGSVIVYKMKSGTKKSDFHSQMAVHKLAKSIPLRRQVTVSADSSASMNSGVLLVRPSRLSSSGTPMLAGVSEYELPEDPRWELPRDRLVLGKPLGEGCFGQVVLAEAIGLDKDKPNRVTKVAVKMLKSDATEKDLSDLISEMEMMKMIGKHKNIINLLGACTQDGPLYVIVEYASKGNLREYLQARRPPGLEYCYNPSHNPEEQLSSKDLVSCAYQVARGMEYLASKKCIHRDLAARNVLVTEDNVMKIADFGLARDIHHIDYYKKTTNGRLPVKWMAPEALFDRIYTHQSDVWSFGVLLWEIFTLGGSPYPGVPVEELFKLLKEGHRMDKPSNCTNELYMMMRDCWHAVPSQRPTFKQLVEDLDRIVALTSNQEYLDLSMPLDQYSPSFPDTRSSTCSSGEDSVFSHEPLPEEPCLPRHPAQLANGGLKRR
Assay: phosphorylation enrichment, bacterial display (enrichment ratio); higher = better substrate or ligand; peptides without Tyr show the background;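 note: 11-residue human phosphosite peptides and single-mutation variants displayed on the E. coli surface, counted by deep sequencing, each peptide's frequency after selection divided by its frequency in the unselected input library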;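 note: frequency after pTyr selection over input frequency; kinase dosed for 20-30% of maximal phosphorylation in three min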
Class field: derived from phosphorylation enrichment; ranges bucket A (below 0.5), bucket B (0.5 to below 0.7), bucket C (0.7 or more)

# monomer.sequence, test.target, assigned.label
measured = [
    ("PRPAGYPSMVS [CACNA1C_Y1832_T1835M]", "FGFR1 (UniProt P11362)", "bucket A"),
    ("EPDSLYGCGRG [ATM_Y2019_G2023R]", "FGFR1 (UniProt P11362)", "bucket A"),
    ("AADGRYEVLFL [SEMA3F_Y478]", "FGFR1 (UniProt P11362)", "bucket B"),
    ("PNKAVYTKMMT [G6PD_Y401_E398K]", "FGFR1 (UniProt P11362)", "bucket B"),
    ("GGPTFYIDTNA [ACTL6A_Y69_YF]", "FGFR1 (UniProt P11362)", "bucket B"),
    ("DFKIIYIAPMR [SNRNP200_Y540]", "FGFR1 (UniProt P11362)", "bucket A"),
    ("LEIETYPRLLD [KRT12_Y429_R430P]", "FGFR1 (UniProt P11362)", "bucket C"),
    ("PTEAQYRFIFM [PTPN11_Y511_Q506P_YF]", "FGFR1 (UniProt P11362)", "bucket C"),
    ("RRAKGYPIDLF [ITGB2_Y125_YF]", "FGFR1 (UniProt P11362)", "bucket C"),
    ("KEEEDYREENN [BMS1_Y651_K652R]", "FGFR1 (UniProt P11362)", "bucket B"),
    ("QSKGIYYVQLE [MGAT4B_Y262]", "FGFR1 (UniProt P11362)", "bucket C"),
    ("PRNLIYFGEHP [TRPV6_Y201_C197R]", "FGFR1 (UniProt P11362)", "bucket A"),
]
